Test system: A498 renal
test details: NCI tumour cell line growth inhibition, 48 h; in the data active means GI50 below about 0.43 µM; inactive means the rest
The categories you may choose from are active, inactive

Would you mind telling me which call this test gave "COc1ccc(-c2oc3ncnc(N)c3c2-c2ccc(NC(=O)Nc3cc(C(F)(F)F)ccc3F)cc2)cc1" ?
active

Called result for "O=C(Nc1ccc(Cl)cc1)c1cc(NCc2cc(O)ccc2O)ccc1O"
inactive

Please let me know the test result on file for "CCOc1ccc(Nc2ccnc3cc(Cl)ccc23)cc1" .
inactive

Name the outcome recorded for "O=c1cc(-c2ccccc2)oc2c(O)c(O)ccc12" in the assay.
inactive

Field: outcome | Entry: "COc1cc(/C=C2\C(=O)Nc3ccc(Cl)cc32)cc(OC)c1OC"
inactive

Hi, do you know how "COc1ccc(-c2c(NC(=O)Nc3ccc(Cl)c(C(F)(F)F)c3)cnn2-c2ccc(S(N)(=O)=O)cc2)cc1" came out in this test?
inactive

So what was the verdict on "COC(=O)[C@@H](C)C[C@H](Cc1ccc(F)cc1)NC(=O)c1csc([C@@H](C[C@H](C(C)C)N(C)C(=O)[C@@H](NC(=O)[C@H]2CCCCN2C)C2CC2)OC(C)=O)n1" in this test?
inactive

Hey, what did the test say about "COc1cc(/C=C/C(=O)c2ccccc2O)ccc1OCCCOc1cc2c(cc1OC)C(=O)N1CCC[C@H]1C=N2" ?
active

Field: outcome | Entry: "Cn1cc(-c2ncnc3ccc(-c4cnc(Cl)c(NS(C)(=O)=O)c4)cc23)c2ccccc21"
active

Please let me know the test result on file for "C=C(C)[C@@H]1C/C=C(/COC(C)=O)CC[C@H]2O[C@@]2(C)CC/C=C(\C)CC1" .
inactive

// param item: "C=C[C@@H]1CCC/C=C/[C@@H]2C[C@H](O)C[C@H]2[C@H](O)/C=C/C(=O)O1" ; yields the recorded call
active

For "Cc1cc(C)c([I+]c2c(C)cc(C)cc2C)c(C)c1" , which call appears in the assay record?
inactive

Answer briefly: the call reported for CCC(CO)Nc1nc(NCc2ccccc2)c2n[nH]c(C(C)C)c2n1 (centres undefined) in this assay.
inactive

// param item: "COc1cc(/C=C2\C[C@H]3[C@@H]4CC=C5C[C@@H](O)CC[C@]5(C)[C@H]4CC[C@]3(C)[C@H]2O)ccc1OCCN1CCCCC1" ; yields the recorded call
inactive

Where these numbers come from: PubChem BioAssay (NCI)
